- System: Botulinum neurotoxin type F light chain protease (Clostridium botulinum)
- PROCEDURE SUMMARY: BoNT/F light chain protease inhibitors, confirmation, biochemical, flow cytometry, cherry pick 2 (AID 602336)
- TEST CONTEXT: multiplex microsphere protease cleavage assay, at 10 µM, stronger effect = higher value
The other results are listed elsewhere or left out.
Reported inhibition values for the following molecules.
A number alone suffices; assume %.

# count of solved cases: 3
{"ITEM SMILES": "O=C(CN1CCN(c2ccccc2O)CC1)NC(=O)NCc1ccccc1", "RESULT UNITS": "%", "inhibition": -4.3}
{"ITEM SMILES": "O=C(OCC(=O)c1c[nH]c2ccccc12)c1cccc(O)c1", "RESULT UNITS": "%", "inhibition": -3.8}
{"ITEM SMILES": "Cc1cc2ccccc2n1CCNC(=O)COc1ccc2ccccc2c1", "RESULT UNITS": "%", "inhibition": -12.9}

Now look at this one.
Exercise: Request the reported inhibition associated with Cc1cc2cc(CNC(=O)c3ccc(S(=O)(=O)N4CCOCC4)cc3)ccc2[nH]1
Key: -10.8
